Values compiled from ChEMBL document CHEMBL4414645.

Reported inhibition is given for each of the following compounds.
# testedTarget: Bifunctional epoxide hydrolase 2 (Homo sapiens) (UniProt P34913)
# Sequence (P34913 whole entry, the tested form may be a part): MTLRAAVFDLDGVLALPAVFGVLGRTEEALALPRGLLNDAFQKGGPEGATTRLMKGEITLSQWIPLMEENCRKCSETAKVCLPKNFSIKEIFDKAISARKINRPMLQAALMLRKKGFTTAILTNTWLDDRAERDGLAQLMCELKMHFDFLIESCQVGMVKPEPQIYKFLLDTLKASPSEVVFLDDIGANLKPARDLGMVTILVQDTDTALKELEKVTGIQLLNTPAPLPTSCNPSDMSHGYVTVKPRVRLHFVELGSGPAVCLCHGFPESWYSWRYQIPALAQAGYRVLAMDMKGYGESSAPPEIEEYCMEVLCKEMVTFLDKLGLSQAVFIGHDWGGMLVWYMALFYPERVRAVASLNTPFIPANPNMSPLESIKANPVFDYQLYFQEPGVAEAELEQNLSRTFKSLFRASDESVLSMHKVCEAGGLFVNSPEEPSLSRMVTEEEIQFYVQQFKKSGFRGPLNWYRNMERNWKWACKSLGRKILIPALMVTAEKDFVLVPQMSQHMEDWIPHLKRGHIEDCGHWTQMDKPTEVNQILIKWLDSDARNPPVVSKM
# protocolText: Inhibition of N-terminal His-tagged recombinant human soluble epoxide hydrolase (2 to 555 residues) expressed in Sf21 insect cells at 10 uM using as 14,15-EET as substrate after 10 mins by reversed-phase HPLC assay relative to control
The reply should contain only the number, in %.

Reference set, count: 6
[[record]]
compound = "CCNC(=O)NCCCC/C=C\\CCCCCCCCCC(=O)OCCOCCOCCO"
testedtarget = "Bifunctional epoxide hydrolase 2 (Homo sapiens) (UniProt P34913)"
measuredproperty = "inhibition"
readoutvalue = 76.6

[[record]]
compound = "CCNC(=O)NCCCC/C=C\\CCCCCCCOCC(=O)O"
testedtarget = "Bifunctional epoxide hydrolase 2 (Homo sapiens) (UniProt P34913)"
measuredproperty = "inhibition"
readoutvalue = 10.4

[[record]]
compound = "CNC(=O)C(=O)NCCCC/C=C\\CCCCCCCCCP(=O)([O-])[O-].[Na+].[Na+]"
testedtarget = "Bifunctional epoxide hydrolase 2 (Homo sapiens) (UniProt P34913)"
measuredproperty = "inhibition"
readoutvalue = 37.7

[[record]]
compound = "CNC(=O)C(=O)NCCCC/C=C\\CCCCCCCCCC1=NO[S+]([O-])N1 (configuration not stated)"
testedtarget = "Bifunctional epoxide hydrolase 2 (Homo sapiens) (UniProt P34913)"
measuredproperty = "inhibition"
readoutvalue = 10

[[record]]
compound = "CNC(=O)C(=O)NCCCC/C=C\\CCCCCCCOCC(=O)O"
testedtarget = "Bifunctional epoxide hydrolase 2 (Homo sapiens) (UniProt P34913)"
measuredproperty = "inhibition"
readoutvalue = 0.8

[[record]]
compound = "CNC(=O)C(=O)NCCCC/C=C\\CCCCCCCCCOc1cccc2sc(NC(C)=O)nc12"
testedtarget = "Bifunctional epoxide hydrolase 2 (Homo sapiens) (UniProt P34913)"
measuredproperty = "inhibition"
readoutvalue = 61.8


Q. Looking for the measured inhibition of CNC(=O)C(=O)NCCCC/C=C\CCCCCCCCCP(=O)(OC)OC , can you help?
A. 6.4
